test system: Hexokinase HKDC1 (Homo sapiens) (UniProt Q2TB90)
Sequence (Q2TB90 whole entry, looked up): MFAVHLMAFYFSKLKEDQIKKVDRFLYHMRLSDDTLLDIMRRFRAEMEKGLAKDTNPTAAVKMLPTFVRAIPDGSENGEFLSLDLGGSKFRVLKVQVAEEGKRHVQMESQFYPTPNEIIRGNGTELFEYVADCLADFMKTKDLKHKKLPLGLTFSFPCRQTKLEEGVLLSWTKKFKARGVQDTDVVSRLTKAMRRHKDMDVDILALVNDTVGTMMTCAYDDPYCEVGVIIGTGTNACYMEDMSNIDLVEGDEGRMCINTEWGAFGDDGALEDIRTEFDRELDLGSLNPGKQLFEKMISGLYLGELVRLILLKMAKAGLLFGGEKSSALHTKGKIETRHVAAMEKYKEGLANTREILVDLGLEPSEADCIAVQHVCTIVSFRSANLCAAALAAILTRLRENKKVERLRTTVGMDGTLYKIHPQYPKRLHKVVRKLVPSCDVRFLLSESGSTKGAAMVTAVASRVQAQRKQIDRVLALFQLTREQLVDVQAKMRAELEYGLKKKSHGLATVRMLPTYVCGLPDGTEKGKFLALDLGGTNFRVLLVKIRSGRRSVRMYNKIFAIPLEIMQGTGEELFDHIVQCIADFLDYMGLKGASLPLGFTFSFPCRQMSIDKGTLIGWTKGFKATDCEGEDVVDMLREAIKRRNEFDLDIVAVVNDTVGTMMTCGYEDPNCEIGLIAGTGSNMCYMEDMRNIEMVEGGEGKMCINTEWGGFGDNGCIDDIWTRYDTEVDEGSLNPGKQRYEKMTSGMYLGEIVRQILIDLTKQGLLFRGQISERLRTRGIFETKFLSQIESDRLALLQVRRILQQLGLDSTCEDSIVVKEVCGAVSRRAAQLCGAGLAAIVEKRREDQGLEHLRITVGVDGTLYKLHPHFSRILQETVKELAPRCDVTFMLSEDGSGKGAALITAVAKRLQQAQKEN
experimental protocol: HKDC1 hexokinase inhibitors, primary screen, biochemical, fluorescence, uHTS (AID 493160);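 note: plate controls were DMSO wells with enzyme for no effect and DMSO wells lacking enzyme for full effect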
stated conditions: recombinant HKDC1, G6PDH/diaphorase resazurin coupled fluorescence; at 20 µM; hits give high values
The campaign covered roughly 340,000 compounds. About 540 (0.16%) were called active. This excerpt belongs to a sample that is enriched for actives.
reported endpoint: inhibition (%)
Give bare numbers, in %.

INSERT INTO measurements (structure_string, observed) VALUES
  ('CCOC(=O)CCP(=O)(O)C(O)(c1ccccc1)c1ccccc1', -11.5),
  ('O=C(Nc1ccc(S(=O)(=O)Nc2ncccn2)cc1)c1cncc(Br)c1', -5.17),
  ('COc1nnc(-c2ccc(C)c(S(=O)(=O)N(C)C)c2)c2ccccc12', -2.23),
  ('COc1cc(CO)ccc1OCC(=O)Nc1cccc2ccccc12', -1.93),
  ('COCc1c(C(=O)N/N=C\c2cccnc2)nnn1-c1nonc1N', -3.41);

Kindly consider the entry below.
Q: Any idea what inhibition was measured for COc1cc(Cl)c(C)cc1NC(=O)CSc1nnc(CN2CCCC2)o1 ?
Ans: -4.86

====

test system: Hexokinase HKDC1 (Homo sapiens) (UniProt Q2TB90)
experimental protocol: HKDC1 hexokinase inhibitors, primary screen, biochemical, fluorescence, uHTS (AID 493160);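 note: plate controls were DMSO wells with enzyme for no effect and DMSO wells lacking enzyme for full effect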
stated conditions: recombinant HKDC1, G6PDH/diaphorase resazurin coupled fluorescence; at 20 µM
About 540 (0.16%) of roughly 340,000 compounds were called active.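 Rule for the calls: active = inhibition above about 35% when tested at 20 µM (limit read from the data); inactive = the rest.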 Only a selection was taken, and actives are over-represented in it overall.
Can you answer with just one of these options? active, inactive

Sample answers from the record:
INSERT INTO measurements (structure_string, group_label) VALUES
  ('CC1(C)OC(=O)C(=CSc2ccc(C(C)(C)C)cc2)C(=O)O1', 'inactive'),
  ('COCCNC(=O)c1ccc(-n2c(SCc3cccnc3)nc3ccccc3c2=O)cc1', 'inactive'),
  ('O=C(NC1=CC(=O)c2ccccc2C1=O)c1ccccc1', 'active'),
  ('O=C1N[C@@H](Cc2ccccc2)C(=O)N2[C@H]1C[C@]1(Br)c3ccccc3N(S(=O)(=O)c3ccccc3)[C@H]21', 'inactive'),
  ('CCN(CC)C(=O)C(=O)c1cn(CC(=O)NCc2ccc3c(c2)OCO3)c2ccccc12', 'inactive');

Please find the next compound below.
Q: Can you look up the reported call for CCCN(CC(=O)Nc1ccccc1C)C(=O)c1ccc(OCC(=O)N2CCOCC2)c(OCC)c1 for me?
Ans: inactive

====

Provide the reported inhibition of each item.
test system: Hexokinase HKDC1 (Homo sapiens) (UniProt Q2TB90)
experimental protocol: HKDC1 hexokinase inhibitors, primary screen, biochemical, fluorescence, uHTS (AID 493160);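 note: plate controls were DMSO wells with enzyme for no effect and DMSO wells lacking enzyme for full effect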
stated conditions: recombinant HKDC1, G6PDH/diaphorase resazurin coupled fluorescence; at 20 µM; hits give high values
Out of some 340,000 compounds screened, about 540 (0.16%) were called active. For the sample, actives were picked, then their nearest neighbours and some compounds at random.

INSERT INTO results (structure_string, observed) VALUES
  ('C/C(=N\NC(=O)COc1ccc(C)cc1[N+](=O)[O-])c1ccc2c(c1)OCCO2', '2.16% (inactive)'),
  ('Cc1nc2ccc(N)nc2nc1C', '-5.39% (inactive)');

Proceeding to the next molecule to report its inhibition.
Q: Provide the documented inhibition with Hexokinase HKDC1 (Homo sapiens) (UniProt Q2TB90) as the system for Cc1ccc(-c2cnc(NC(=O)CCC(=O)N(C)Cc3ccccc3)n2C)cc1
Ans: -3.47% (inactive)
